Where these numbers come from: paper PMC11555526

target: AURKB (MV4-11^AURKB-HiBiT cells) (Homo sapiens, UniProt Q96GD4); construct: expressed in transfected cells; host or cells: MV4-11, lentiviral transduction (pRRL-PGK vector); test: HiBiT assay, AURKB degradation; format: cell-based; conditions: 6 h treatment, read-out: DC50 (half-maximal degradation concentration) AURKB
Sequence (Q96GD4 1-345 isoform Q96GD4-5): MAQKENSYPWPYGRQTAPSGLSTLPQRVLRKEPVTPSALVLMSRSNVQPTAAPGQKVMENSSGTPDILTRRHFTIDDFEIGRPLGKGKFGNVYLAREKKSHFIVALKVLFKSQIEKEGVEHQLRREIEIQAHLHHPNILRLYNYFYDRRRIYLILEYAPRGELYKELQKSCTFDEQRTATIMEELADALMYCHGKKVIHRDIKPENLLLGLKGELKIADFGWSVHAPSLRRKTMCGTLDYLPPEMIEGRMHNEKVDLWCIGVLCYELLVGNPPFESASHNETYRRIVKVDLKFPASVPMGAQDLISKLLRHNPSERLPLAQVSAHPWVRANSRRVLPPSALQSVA
QUANTITY: DC50 (µM)

Worked examples, 3 molecules total:
{"MOLECULE": "COc1cc(N2CCNCC2)ccc1Nc1nc(Nc2ccccc2S(=O)(=O)C(C)C)c2nc[nH]c2n1 [SF2]", "MEASUREMENT UNITS": "µM", "DC50": 4.86}
{"MOLECULE": "Cc1ncsc1-c1ccc(CNC(=O)[C@@H]2C[C@@H](O)CN2C(=O)[C@@H](NC(=O)CCCC(=O)N2CCN(c3ccc(Nc4nc(NC5CCCCC5)c5nc[nH]c5n4)cc3)CC2)C(C)(C)C)cc1 [Compound 43]", "MEASUREMENT UNITS": "µM", "DC50": 2.28}
{"MOLECULE": "O=C1CCC(N2C(=O)c3cccc(NC(=O)COCCOCC(=O)N4CCN(c5ccc(Nc6nc(NC7CCCCC7)c7nc[nH]c7n6)cc5)CC4)c3C2=O)C(=O)N1 (centres unmarked) [Compound 17]", "MEASUREMENT UNITS": "µM", "DC50": 0.598}

a: Cc1ncsc1-c1ccc(CNC(=O)[C@@H]2C[C@@H](O)CN2C(=O)[C@@H](NC(=O)CCCC(=O)NCC(=O)N2CCN(c3ccc(Nc4nc(Nc5ccccc5S(=O)(=O)C(C)C)c5nc[nH]c5n4)cc3)CC2)C(C)(C)C)cc1 [Compound 46]
b: COc1cc(N2CCC(OCC(=O)N3CCN(c4cccc5c4C(=O)N(C4CCC(=O)NC4=O)C5=O)CC3)CC2)ccc1Nc1nc(Nc2ccccc2S(=O)(=O)C(C)C)c2nc[nH]c2n1 (centres unmarked) [Compound 40]
c: Cc1ncsc1-c1ccc(CNC(=O)[C@@H]2C[C@@H](O)CN2C(=O)[C@@H](NC(=O)COCCOCC(=O)N2CCN(c3ccc(Nc4nc(Nc5ccccc5S(=O)(=O)C(C)C)c5nc[nH]c5n4)cc3)CC2)C(C)(C)C)cc1 [Compound 49]
d: CC(C)S(=O)(=O)c1ccccc1Nc1nc(Nc2ccc(N3CCN(C(=O)CCC(=O)Nc4cccc5c4C(=O)N(C4CCC(=O)NC4=O)C5=O)CC3)cc2)nc2[nH]cnc12 (centres unmarked) [Compound 15]
e: Cc1ncsc1-c1ccc(CNC(=O)[C@@H]2C[C@@H](O)CN2C(=O)[C@@H](NC(=O)CCC(=O)NCCCNC(=O)CCC(=O)N2CCN(c3ccc(Nc4nc(NC5CCCCC5)c5nc[nH]c5n4)cc3)CC2)C(C)(C)C)cc1 [Compound 56]
Prompt: Order the records, beginning with the lowest DC50 and ending with the highest. Form entry: labels listed in requested order.
Completion: d, a, b, e, c
